Below: a set of entries, each annotated with reported EC50.
- ASSAYED_TARGET: human S1PR5 (Homo sapiens)
- Construct: host or cells: CHO-K1
- Sequence (Q9H228 whole entry): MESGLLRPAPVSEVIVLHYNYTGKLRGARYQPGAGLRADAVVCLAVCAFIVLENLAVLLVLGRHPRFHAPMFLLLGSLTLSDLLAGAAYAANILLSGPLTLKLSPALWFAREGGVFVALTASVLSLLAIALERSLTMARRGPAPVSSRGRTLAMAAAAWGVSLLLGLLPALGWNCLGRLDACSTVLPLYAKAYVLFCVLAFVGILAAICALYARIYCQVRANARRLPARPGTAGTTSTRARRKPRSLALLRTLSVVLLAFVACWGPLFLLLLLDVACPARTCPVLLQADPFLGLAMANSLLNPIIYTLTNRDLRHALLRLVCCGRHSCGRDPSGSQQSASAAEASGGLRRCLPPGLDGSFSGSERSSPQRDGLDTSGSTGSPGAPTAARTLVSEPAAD
- METHOD_DESCRIPTION: Intracellular Ca2+ release (FLIPR) agonist potency, S1P5
- Type: cell-based
- MEASUREMENT_SETUP: recombinant CHO-K1 cells expressing human S1PR5, aequorin, Gq/i5; Calcium 5 FLIPR; read-out: S1P5 EC50 range
MEASURED_ATTRIBUTE: EC50

INSERT INTO results (compound, measured_attribute, test_value) VALUES
  ('O=C(O)CCOC1CCc2cc(OCc3ccc(F)cc3)ccc2C1 (stereo not drawn) [Compound 194]', 'EC50', '1000 to 10000 nM'),
  ('O=C(O)CCOC1CCc2cc(OCc3ccccc3Cl)ccc2C1 (stereo not drawn) [Compound 188]', 'EC50', '1000 to 10000 nM'),
  ('Cc1cccc(F)c1COc1ccc2c(c1)OCC(N1CC(C(=O)O)C1)C2 (stereo not drawn) [Compound 53]', 'EC50', '100 to 1000 nM'),
  ('O=C(O)CCNC1CCc2cc(C#Cc3c(Cl)cccc3Cl)ccc2C1 (stereo not drawn) [Compound 12]', 'EC50', '< 10 nM'),
  ('O=C(O)C1CN(C2COc3cc(OCCc4ccccc4)ccc3C2)C1 (stereo not drawn) [Compound 226]', 'EC50', '1000 to 10000 nM'),
  ('O=C(O)CCOC1CCc2cc(OCc3cccc(Cl)c3Cl)ccc2C1 (stereo not drawn) [Compound 189]', 'EC50', '1000 to 10000 nM'),
  ('O=C(O)COC1CCc2cc(OCc3ccc(F)cc3)ccc2C1 (stereo not drawn) [Compound 214]', 'EC50', '1000 to 10000 nM'),
  ('O=C(O)C1CN(C2COc3cc(OCc4ccc5cc(F)ccc5n4)ccc3C2)C1 (stereo not drawn) [Compound 108]', 'EC50', '1000 to 10000 nM'),
  ('O=C(O)C1CN(C2COc3cc(OCc4cccc(Cl)c4)ccc3C2)C1 (stereo not drawn) [Compound 24]', 'EC50', '1000 to 10000 nM');
